target: HLA-DRB1*1302 (Homo sapiens, UniProt P01903+P01911, A100E/A169T/K41T/L162R/M171V/P40S/Q125H/Q178H/Q39Y/Q99D/R42S/S66N/T262R/V115G/W38E/Y61H); test: biochemical; type: binding
Sequence (P01903 26-254 limits assumed, other chains not shown): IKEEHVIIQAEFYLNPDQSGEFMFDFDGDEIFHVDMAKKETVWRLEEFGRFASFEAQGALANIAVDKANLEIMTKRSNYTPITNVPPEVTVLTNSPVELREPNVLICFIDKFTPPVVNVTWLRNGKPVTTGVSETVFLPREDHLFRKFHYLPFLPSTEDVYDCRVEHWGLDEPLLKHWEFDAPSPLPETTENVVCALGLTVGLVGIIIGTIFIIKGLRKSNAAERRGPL
pIC50: −log10 of the molar value. Ends that are not written are not given here.
MEASURE: pIC50

> print(dat)
                     sequence.entry  test.value
1  NYEIYIASSSNIYLM [compound 39046]        4.53
2  LKPFYSLETMLMANS [compound 39147]        4.10
3  NVRKFFLNDVSSIRH [compound 39148]        5.13
